Quick record: IC50, ITK (Homo sapiens, UniProt Q08881).
experimental readout: IC50

• C=CC(=O)Nc1cccc(-c2cnc3[nH]cc(-c4ccnc(C#N)c4)c3c2C)c1 = ≤ 100 nM
• C=CC(=O)N(C)c1cccc(-c2cnc3[nH]cc(-c4ccnc(OC)c4)c3c2)c1 = ≤ 100 nM
• C=CC(=O)Nc1cc(OC(F)(F)F)cc(-c2cnc3[nH]cc(-c4cccc(C#N)c4)c3c2)c1 = ≤ 100 nM
• C=CC(=O)N(C)c1cc(OC)cc(-c2cnc3[nH]cc(-c4cccc(C#N)c4)c3c2)c1 = ≤ 100 nM
• C=CC(=O)Nc1cc(OC)cc(-c2cnc3[nH]cc(-c4ccnc5[nH]ccc45)c3c2)c1 = ≤ 100 nM
• C=CC(=O)Nc1cc(-c2cnc3[nH]cc(-c4cccc(C)c4)c3c2)cc(C(F)(F)F)c1 = ≤ 1000 nM
• CN(C)C/C=C/C(=O)Nc1cc(-c2cnc3[nH]cc(-c4ccnc(F)c4)c3c2)cc(C(F)(F)F)c1 = ≤ 100 nM
• CN(C)C/C=C/C(=O)N(C)c1cncc(-c2cnc3[nH]cc(-c4cccc(C#N)c4)c3c2)c1 = ≤ 100 nM
• COc1cc(NC(=O)/C=C/CN(C)C)cc(-c2cnc3[nH]cc(-c4cccc(C#N)c4)c3c2)c1 = ≤ 100 nM
• C=CC(=O)Nc1cccc(-c2cnc3[nH]cc(-c4cncc(C#N)c4)c3c2)c1 = ≤ 100 nM
• C=CC(=O)Nc1cncc(-c2cnc3[nH]cc(-c4cccc(C(F)(F)F)c4)c3c2)c1 = ≤ 1000 nM

---

tested on: ITK phosphorylation of its substrate, PLCγ1, at Y783; test: ITK target modulation assay (phospho-Y783 PLCγ1 immunoblot in Jurkat T cells); type: cell-based; conditions: Homo sapiens, Jurkat, 2 h, 2 hours compound, CD3/CD28 Dynabeads stimulation 100 sec, anti-phospho-Y783 PLCγ1 immunoblot, read-out: PLC-γ Inhibition IC50
experimental readout: IC50

• C=CC(=O)Nc1cc(OC)cc(-c2cnc3[nH]cc(-c4ccncn4)c3c2)c1 [Example 30] = ≤ 1000 nM
• C=CC(=O)Nc1cccc(-c2cnc3[nH]cc(-c4ccnc(C#N)c4)c3c2C)c1 [Example 44] = ≤ 1000 nM
• C=CC(=O)Nc1cc(-c2cnc3[nH]cc(-c4ccnc(C)c4)c3c2)cc(C(F)(F)F)c1 [Example 23] = ≤ 1000 nM
• C=CC(=O)Nc1cc(-c2cnc3[nH]cc(-c4cncc(C#N)c4)c3c2)cc(C(F)(F)F)c1 [Example 12] = ≤ 1000 nM
• C=CC(=O)Nc1cc(OC)cc(-c2cnc3[nH]cc(-c4ccnc(F)c4)c3c2)c1 [Example 29] = ≤ 1000 nM
• C=CC(=O)Nc1cc(OC)cc(-c2cnc3[nH]cc(-c4ccnc(C)c4)c3c2)c1 [Example 28] = ≤ 1000 nM
• CN(C)C/C=C/C(=O)Nc1cccc(-c2cnc3[nH]cc(-c4cn(C)c(=O)c5[nH]ccc45)c3c2)c1 [Example 6] = > 5000 nM
• CN(C)C/C=C/C(=O)Nc1cccc(-c2cnc3[nH]cc(-c4cncc(C(N)=O)c4)c3c2)c1 [Example 10] = > 5000 nM

---

test system: ITK phosphorylation of its substrate, PLCγ1, at Y783; assay: ITK target modulation assay (phospho-Y783 PLCγ1 immunoblot in Jurkat T cells); format: cell-based; conditions: Homo sapiens, Jurkat, 2 h, 2 hours compound, CD3/CD28 Dynabeads stimulation 100 sec, anti-phospho-Y783 PLCγ1 immunoblot, read-out: PLC-γ Inhibition IC50
experimental readout: IC50

• C=CC(=O)Nc1cc(-c2cnc3[nH]cc(-c4cnc(OC)nc4)c3c2)cc(C(F)(F)F)c1 = ≤ 1000 nM
• CN(C)C/C=C/C(=O)Nc1cncc(-c2cnc3[nH]cc(-c4ccncn4)c3c2)c1 = > 5000 nM
• C=CC(=O)Nc1cc(OC)cc(-c2cnc3[nH]cc(-c4cccc(C#N)c4)c3c2)c1 = ≤ 1000 nM
• COc1cc(NC(=O)/C=C/CN(C)C)cc(-c2cnc3[nH]cc(-c4cccc(C#N)c4)c3c2)c1 = ≤ 1000 nM
• C=CC(=O)Nc1cccc(-c2cnc3[nH]cc(-c4cncc(C#N)c4)c3c2)c1 = 1000 to 5000 nM
• COc1cc(NC(=O)/C=C/CN(C)C)cc(-c2cnc3[nH]cc(-c4ccnc(C)c4)c3c2)c1 = ≤ 1000 nM
• C=CC(=O)N(C)c1cncc(-c2cnc3[nH]cc(-c4cccc(C#N)c4)c3c2)c1 = ≤ 1000 nM
• COc1cc(NC(=O)/C=C/CN(C)C)cc(-c2cnc3[nH]cc(-c4ccncc4)c3c2)c1 = ≤ 1000 nM
• CN(C)C/C=C/C(=O)Nc1cc(-c2cnc3[nH]cc(-c4ccnc(F)c4)c3c2)cc(C(F)(F)F)c1 = ≤ 1000 nM
• C=CC(=O)Nc1cc(C)cc(-c2cnc3[nH]cc(-c4cccc(C#N)c4)c3c2)c1 = 1000 to 5000 nM
• COc1cc(-c2c[nH]c3ncc(-c4cncc(NC(=O)/C=C/CN(C)C)c4)cc23)ccn1 = ≤ 1000 nM
• C=CC(=O)Nc1cncc(-c2cnc3[nH]cc(-c4ccncn4)c3c2)c1 = ≤ 1000 nM
• Cc1cc2c(-c3c[nH]c4ncc(-c5cc(NC(=O)/C=C/CN(C)C)cc(C(F)(F)F)c5)cc34)ccnc2[nH]1 = ≤ 1000 nM
• Cc1cc(-c2c[nH]c3ncc(-c4cc(NC(=O)/C=C/CN(C)C)cc(C(F)(F)F)c4)cc23)ccn1 = ≤ 1000 nM
• C=CC(=O)Nc1cc(-c2cnc3[nH]cc(-c4cccc(F)c4)c3c2)cc(C(F)(F)F)c1 = 1000 to 5000 nM
• CN(C)C/C=C/C(=O)Nc1cc(-c2cnc3c(c2)c(-c2cccc(C#N)c2)cn3C)cc(C(F)(F)F)c1 = > 5000 nM
